The entries below are paired with their reported growth.
system: HT29 colon; assay: NCI-60 one-dose screen, 48 h (100 = growth as untreated, 0 = no growth, -100 = all killed); settings: 10 µM
The panel holds about 83,000 compounds, 20% with a hit somewhere; the sample as a whole holds those more often.

{"MOLECULE": "C=CCNC(=O)c1ccc(OC)cc1", "READOUT_UNIT": "%", "growth": 129}
{"MOLECULE": "Cc1cc(N)c(S(=O)(=O)O)c(N)c1", "READOUT_UNIT": "%", "growth": 111}
{"MOLECULE": "COc1ccccc1NC(=O)c1cc2cc(Br)ccc2cc1O", "READOUT_UNIT": "%", "growth": 72.8}
{"MOLECULE": "C[C@]12CC[C@@H]3c4ccc(OCC(=O)O)cc4CC[C@H]3[C@@H]1CCC2=O", "READOUT_UNIT": "%", "growth": 104}
{"MOLECULE": "CCOC(=O)Nc1nn[nH]n1", "READOUT_UNIT": "%", "growth": 110}
{"MOLECULE": "O=C(Cc1ccc(OCc2ccccc2)cc1)NCc1ccc2c(c1)OCO2", "READOUT_UNIT": "%", "growth": 27.4}
{"MOLECULE": "CC(C)CCOC(=O)c1ccccc1", "READOUT_UNIT": "%", "growth": 108}
{"MOLECULE": "CCOC(=O)CNN", "READOUT_UNIT": "%", "growth": 105}
{"MOLECULE": "CC1(C)N=C(N)N=C(N)N1c1ccc(Cl)cc1", "READOUT_UNIT": "%", "growth": 29.8}
{"MOLECULE": "O=S(=O)(Cc1ccccc1)c1ccccc1", "READOUT_UNIT": "%", "growth": 107}
{"MOLECULE": "CCOC(=O)c1ccc(NC(=S)P(=O)(c2ccccc2)c2ccccc2)cc1", "READOUT_UNIT": "%", "growth": 111}
{"MOLECULE": "Cc1ccc(N)cc1[N+](=O)[O-]", "READOUT_UNIT": "%", "growth": 123}
{"MOLECULE": "CC(=O)OCCC(C)CCC=C(C)C (centres undefined)", "READOUT_UNIT": "%", "growth": 105}
{"MOLECULE": "c1ccc(Sc2ccccc2)cc1", "READOUT_UNIT": "%", "growth": 102}
{"MOLECULE": "C#C[C@H]1CCCCCC1O (some centres undefined)", "READOUT_UNIT": "%", "growth": 107}
{"MOLECULE": "OCc1cccc2ccccc12", "READOUT_UNIT": "%", "growth": 114}
{"MOLECULE": "O=[N+]([O-])c1ccc(/C=C/C=C/c2ccccc2)c(Cl)c1", "READOUT_UNIT": "%", "growth": 90.3}
{"MOLECULE": "O=[N+]([O-])c1ccc(-c2ncc(-c3ccc(Br)cc3)o2)cc1", "READOUT_UNIT": "%", "growth": 98.3}
{"MOLECULE": "COc1ccccc1N=Nc1c(O)ccc2cc(S(=O)(=O)O)ccc12", "READOUT_UNIT": "%", "growth": 96.7}
{"MOLECULE": "CCCC1(c2ccccc2)NC(=O)NC1=O (centres undefined)", "READOUT_UNIT": "%", "growth": 111}
{"MOLECULE": "Cc1cc(O)ccc1O", "READOUT_UNIT": "%", "growth": 114}
{"MOLECULE": "Cc1ccc(Cl)cc1NC(=O)N(C)CCO", "READOUT_UNIT": "%", "growth": 133}
{"MOLECULE": "CCC(O)CC(CC)CO (centres undefined)", "READOUT_UNIT": "%", "growth": 113}
{"MOLECULE": "CCOC(=O)Nc1cc2c(c(N)n1)N=C(c1ccccc1)CO2", "READOUT_UNIT": "%", "growth": 12.2}
{"MOLECULE": "O=C(O)c1ccnc(Br)c1", "READOUT_UNIT": "%", "growth": 110}
{"MOLECULE": "CC1=CC(=O)c2ccccc2C1=O", "READOUT_UNIT": "%", "growth": 112}
{"MOLECULE": "O=C(O)c1ccccc1NCc1ccco1", "READOUT_UNIT": "%", "growth": 98.7}
{"MOLECULE": "Cc1ccc(C(=O)NC2c3ccccc3Oc3ccccc32)cc1", "READOUT_UNIT": "%", "growth": 23.4}
{"MOLECULE": "CCCCC1C(=O)N(c2ccccc2)N(c2ccccc2)C1=O", "READOUT_UNIT": "%", "growth": 104}

###

system: T-47D breast; test: NCI-60 one-dose screen, 48 h (100 = growth as untreated, 0 = no growth, -100 = all killed); settings: 10 µM
The panel holds about 83,000 compounds, 20% with a hit somewhere; the sample as a whole holds those more often.

{"COMPOUND": "Oc1ccc(N=Nc2ccc(Br)cc2)c(O)c1", "ASSAYED_SYSTEM": "T-47D breast", "READOUT_UNIT": "%", "growth": 28}
{"COMPOUND": "Nc1ccc(CC(=O)O)c(N)c1", "ASSAYED_SYSTEM": "T-47D breast", "READOUT_UNIT": "%", "growth": 117}
{"COMPOUND": "NC(CSC(c1ccccc1)(c1ccccc1)c1ccccc1)C(=O)O (stereo not drawn)", "ASSAYED_SYSTEM": "T-47D breast", "READOUT_UNIT": "%", "growth": 15.5}
{"COMPOUND": "Nc1nc(N)c(N=Nc2ccc(C(=O)O)cc2)c(N)n1", "ASSAYED_SYSTEM": "T-47D breast", "READOUT_UNIT": "%", "growth": 100}
{"COMPOUND": "CN(C)C(C)(C)CC(C)(C)C", "ASSAYED_SYSTEM": "T-47D breast", "READOUT_UNIT": "%", "growth": 104}
{"COMPOUND": "CCCCCCCCCCC(C)Br (stereo not drawn)", "ASSAYED_SYSTEM": "T-47D breast", "READOUT_UNIT": "%", "growth": 99.2}
{"COMPOUND": "C=CCc1cc(C(C)=O)cc(OC)c1O", "ASSAYED_SYSTEM": "T-47D breast", "READOUT_UNIT": "%", "growth": 118}
{"COMPOUND": "N/N=C(/Cc1ccccc1)NNC(N)=S", "ASSAYED_SYSTEM": "T-47D breast", "READOUT_UNIT": "%", "growth": 91.6}

###

tested on: IGROV1 ovarian; assay: NCI-60 one-dose screen, 48 h (100 = growth as untreated, 0 = no growth, -100 = all killed); details: 10 µM
The panel holds about 83,000 compounds, 20% with a hit somewhere; the sample as a whole holds those more often. Calls of active or inactive are those of the source. How the source made its calls: active means growth percent below 10; inactive means the rest.

{"MOLECULE": "C=CC(=O)OCCCCCCCC", "growth": "114% (inactive)"}
{"MOLECULE": "CCOC(=O)c1[nH]c(C)c(C(C)=O)c1C", "growth": "102% (inactive)"}
{"MOLECULE": "Nc1ccc(N=Nc2ccc(O)cc2)c(N)n1", "growth": "89.4% (inactive)"}
{"MOLECULE": "COC(=O)Nc1nc2ccc(C(=O)c3cccs3)cc2[nH]1", "growth": "39.1% (inactive)"}
{"MOLECULE": "N/N=C(/Cc1ccccc1)NNC(N)=S", "growth": "95.2% (inactive)"}
{"MOLECULE": "O=C(O)CSCSCC(=O)O", "growth": "107% (inactive)"}
{"MOLECULE": "CN(c1ccccc1)c1ncnc2c1ncn2C", "growth": "118% (inactive)"}
{"MOLECULE": "c1ccc2c(c1)Sc1ccccc1S2", "growth": "106% (inactive)"}
{"MOLECULE": "COCCCC/C(=N\\OCCN)c1ccc(C(F)(F)F)cc1", "growth": "105% (inactive)"}
{"MOLECULE": "CNC(=O)c1ccccc1CC1(O)c2ccccc2Oc2ccccc21", "growth": "43% (inactive)"}
{"MOLECULE": "Cc1cc(/C=C/c2ccc3cc(N(C)C)ccc3[n+]2C)c(C)n1-c1ccccc1", "growth": "3.27% (active)"}
{"MOLECULE": "CCn1c(=O)n(C)c2c(=O)n(C)c(=O)n(C)c21", "growth": "122% (inactive)"}
{"MOLECULE": "CC1CCCC(CC(N)=O)CC1 (stereo not drawn)", "growth": "114% (inactive)"}

###

test system: OVCAR-8 ovarian; experiment: NCI-60 one-dose screen, 48 h (100 = growth as untreated, 0 = no growth, -100 = all killed); settings: 10 µM
This is part of a sample that, as a whole, favours compounds with a hit. Of some 83,000 tested, about 20% had one in any assay.
Readings of growth for the listed compounds
MEASURED_PARAMETER: growth (%)

{"COMPOUND": "O=[N+]([O-])c1ccc(S(=O)(=O)NN=C2CCCCC2)cc1", "REPORTED": 101}
{"COMPOUND": "O=[N+]([O-])c1ccc(-c2ncc(-c3ccc(Br)cc3)o2)cc1", "REPORTED": 109}
{"COMPOUND": "O=S(=O)(O)CC(O)CN1CCN(CCO)CC1 (stereo not drawn)", "REPORTED": 98.8}
{"COMPOUND": "COC(=O)c1[nH]c(=O)c(C#N)c(C(=O)OC)c1C(=O)c1ccccc1", "REPORTED": 101}
{"COMPOUND": "C=CC[N+](C)(C)C", "REPORTED": 106}
{"COMPOUND": "COc1ccc(C2(O)CCCCC2)cc1", "REPORTED": 107}
{"COMPOUND": "C=C1CC/C=C(\\C)C(=O)C[C@@H]2[C@@H]1CC2(C)C", "REPORTED": 98.1}
{"COMPOUND": "CCCCCCCCO", "REPORTED": 100}
{"COMPOUND": "CCS(=O)(=O)CCCl", "REPORTED": 104}
{"COMPOUND": "O=C(O)c1ccnc(Br)c1", "REPORTED": 103}
{"COMPOUND": "O=C(O)[C@@H]1[C@H]2C[C@H]3c4[nH]c5ccccc5c4CCN3C[C@@H]2CC[C@@H]1O", "REPORTED": 87.6}
{"COMPOUND": "Clc1ccc(-c2nnc(-c3cccc4ccccc34)o2)cc1", "REPORTED": 94.7}
{"COMPOUND": "COc1cc(C2NC(=O)C(C#N)=C(Nc3cccc(C)c3)S2)ccc1O (stereo not drawn)", "REPORTED": 105}
